# test-details: F508del CFTR correction, initial screen, CFBE line, single point (AID 720511);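 also: cells transiently co-express mutant CFTR-F508del with the halide-sensitive YFP; corrector assay measuring rescue of mutant channel to the surface after 24 h compound exposure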
# condition-details: CFBE cells, YFP halide quenching, at 7.58 µM, stronger effect = higher value, % fluorescence drop versus neutral controls, stimulated with forskolin plus potentiator P3
Hit rate of the full screen: of about 350,000 compounds, about 1,300 (0.37%) were called active. The list comes from a sample in which actives are over-represented; it also holds close analogues and randomly drawn compounds.
value-type: activity (quench increase) (%)
Write it as a number; the unit % goes unstated.

Req: Look at this compound and give its reported activity (quench increase). C/C=C/c1cnc2c(c1)C(=O)N([C@@H](C)CO)C[C@@H](C)[C@@H](CN(C)S(=O)(=O)c1ccccc1F)O2
Resp: -0.914

Req: Then this compound: O=C(NCCC1CCCCN1S(=O)(=O)c1cccs1)C(=O)Nc1ccc(F)cc1F (centres undefined)
Resp: 8.8

Req: Please do the same for Cc1cccc(NS(=O)(=O)c2ccc(-c3cnc(C4CC4)o3)cc2)c1 as well.
Resp: 10

Req: And then CC(=O)NC[C@H]1[C@@H](c2ccc(C#CC(C)C)cc2)[C@@H](CO)N1Cc1ccccn1 , what is it?
Resp: -0.601

Req: How about CCCN(C)C[C@@H]1Oc2ncc(-c3ccccc3F)cc2C(=O)N([C@@H](C)CO)C[C@@H]1C ?
Resp: -1.56

Req: Same thing, different compound: C[C@@H]1CN([C@@H](C)CO)S(=O)(=O)c2ccc(C#CCN(C)C)cc2O[C@@H]1CN(C)C(=O)CC1CC1
Resp: 0.474

Req: Now give it for COc1ccccc1-n1ccnc1SCC(=O)NC(C)(C)C too.
Resp: 0.912

Req: And then Cc1noc(C)c1NC(=O)Nc1ccc2c(c1)CC(=O)N([C@@H](C)CO)C[C@H](C)[C@@H](CN(C)CC1CCCCC1)O2 , what is it?
Resp: 0.161

Req: CCC(=O)N1CC2(CN(Cc3cccnc3)C2)c2c(n(C)c3cc(OC)ccc23)[C@@H]1CO ?
Resp: -0.0075
